# credit: patent US11103432B2

TEST_PROTOCOL: Benzo[a]pyrene skin penetration study, Franz diffusion cell
Format: in vitro ADME, human
EXPERIMENTAL_SETUP: human, without pre-treatment; skin temperature 42° C.; 24 h; read-out: bioavailability (skin + receptor fluid) of benzo[a]pyrene, % of the dose applied to the skin
MEASURED_ATTRIBUTE: bioavailability at 24 h (%)
The answer is to be given in %; state only the numeric part.

For c1ccc2c(c1)cc1ccc3cccc4ccc2c1c34 [B(a)P, benzo[a]pyrene, reference compound] , what is its reported bioavailability at 24 h? 6.95

###

TEST_PROTOCOL: Benzo[a]pyrene skin penetration study, Franz diffusion cell
Format: in vitro ADME, human
EXPERIMENTAL_SETUP: human, without pre-treatment; skin temperature 32° C.; 24 h; read-out: bioavailability (skin + receptor fluid) of benzo[a]pyrene, % of the dose applied to the skin
MEASURED_ATTRIBUTE: bioavailability at 24 h

Give its bioavailability at 24 h value. Item: c1ccc2c(c1)cc1ccc3cccc4ccc2c1c34 [B(a)P, benzo[a]pyrene, reference compound] ≤ 2.95%
